Give measured % Dose In Liver for each item. Keep answers brief.
assay: biolocalization of the radionuclide in rats (tissue distribution after tail vein injection); assay type: in vivo, male Sprague Dawley rats; conditions: Sm-153; two hours; comparative; average of 5 rats (MDP, HEDP), 3 rats (PYP, IDP)
Answers are plain numbers, in % Dose.

{"compound": "O=P(O)(O)NP(=O)(O)O.[153Sm+3] [Sm-153 IDP, reference compound]", "result.units": "% Dose", "meas.value": 36}
{"compound": "O=P(O)(O)OP(=O)(O)O.[153Sm+3] [Sm-153 PYP, reference compound]", "result.units": "% Dose", "meas.value": 73}
{"compound": "CC(O)(P(=O)(O)O)P(=O)(O)O.[153Sm+3] [Sm-153 HEDP, reference compound]", "result.units": "% Dose", "meas.value": 3.5}

Next compound, please.
Looking for the measured % Dose In Liver of O=P(O)(O)CP(=O)(O)O.[153Sm+3] [Sm-153 MDP, reference compound] , can you help?
85
